Value source: patent US20230381333A1

- measuredOn: human GCG receptor (human, UniProt P47871 26-477)
- Sequence (P47871 26-477): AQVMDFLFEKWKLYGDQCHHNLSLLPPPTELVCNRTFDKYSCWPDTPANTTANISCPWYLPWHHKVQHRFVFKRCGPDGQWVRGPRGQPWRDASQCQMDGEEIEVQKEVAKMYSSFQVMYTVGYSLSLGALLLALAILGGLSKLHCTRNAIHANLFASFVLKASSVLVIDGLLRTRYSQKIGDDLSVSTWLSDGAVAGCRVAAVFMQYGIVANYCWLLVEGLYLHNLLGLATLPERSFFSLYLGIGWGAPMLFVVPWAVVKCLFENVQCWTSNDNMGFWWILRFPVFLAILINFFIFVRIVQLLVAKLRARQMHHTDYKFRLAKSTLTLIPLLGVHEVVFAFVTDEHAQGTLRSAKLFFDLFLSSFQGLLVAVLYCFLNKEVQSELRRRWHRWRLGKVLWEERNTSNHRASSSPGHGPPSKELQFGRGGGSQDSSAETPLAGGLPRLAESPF
- protocolSummary: cell-based or functional assay
Bridge positions count the residues as written; N and C are the ends. Square brackets hold non-standard residues; d marks the D form. Ends that are not written are not given here. * marks the point of attachment. Acetyl(2-(4-imidazolyl)) = O=C(Cc1c[nH]cn1)*; Aib = CC(C)(N)C(=O)O
// NB: equality with 0.8% counts as condition not met; only In vitro activity compared to native-type peptide (%), vs Glucagon strictly below is condition met

Past entries and their recorded results:
[[record]]
binder = "[Acetyl(2-(4-imidazolyl))]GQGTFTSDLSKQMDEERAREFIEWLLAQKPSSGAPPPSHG [triple agonist of SEQ ID NO: 17]"
labelvalue = "condition met"

[[record]]
binder = "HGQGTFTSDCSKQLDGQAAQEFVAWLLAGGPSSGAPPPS [triple agonist of SEQ ID NO: 44]"
labelvalue = "condition met"

[[record]]
binder = "H[Aib]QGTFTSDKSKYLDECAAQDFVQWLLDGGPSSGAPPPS [triple agonist of SEQ ID NO: 41]"
labelvalue = "condition met"

[[record]]
binder = "{Acetyl(2-(4-imidazolyl))}-[Aib]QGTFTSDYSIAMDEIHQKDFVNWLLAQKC (bridge 15-19) [triple agonist of SEQ ID NO: 92]"
labelvalue = "condition met"

[[record]]
binder = "Y[Aib]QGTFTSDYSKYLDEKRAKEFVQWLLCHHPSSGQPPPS (bridge 16-20) [triple agonist of SEQ ID NO: 95]"
labelvalue = "condition met"


Incoming: Dear colleague, could you confirm whether In vitro activity compared to native-type peptide (%), vs Glucagon of H[Aib]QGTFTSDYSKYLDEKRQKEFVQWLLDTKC (bridge 16-20) [triple agonist of SEQ ID NO: 78] falls below 0.8%? Thanks.
Outgoing: condition not met

Incoming: Dear colleague, could you confirm whether In vitro activity compared to native-type peptide (%), vs Glucagon of Y[Aib]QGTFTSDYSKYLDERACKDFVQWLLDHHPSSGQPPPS (bridge 16-20) [triple agonist of SEQ ID NO: 71] falls below 0.8%? Thanks.
Outgoing: condition not met
